Measured values drawn from PubChem BioAssay (NCI) for this set.

Give measured TGI for each item. Keep answers brief.
System: CCRF-CEM leukemia
PROTOCOL: NCI tumour cell line growth inhibition, 48 h
Write down the numeric answer in µM and omit the unit.

Req: Please indicate recorded TGI of `CN1CCN(Cc2ccc(NC(=O)c3cncc(C#Cc4cnc5ccc(OCC(C)(C)O)nn45)c3)cc2C(F)(F)F)CC1` measured with CCRF-CEM leukemia.
Resp: 12.5

Req: # return TGI for `CN(C)CCCOc1c2ccc(Cl)cc2nc2c1oc1ccccc12` , test system: CCRF-CEM leukemia
Resp: 11.1

Req: Look up and report measured TGI (CCRF-CEM leukemia) for the following compound: `COc1ccc(/C=N/Nc2ccnc3cc(Cl)ccc23)cc1Cl`
Resp: 5.93
